Values from the RNAGym collection of RNA variant scans (doi:10.1073/pnas.2313332121)

B1: TPR t1 (parent)
chain: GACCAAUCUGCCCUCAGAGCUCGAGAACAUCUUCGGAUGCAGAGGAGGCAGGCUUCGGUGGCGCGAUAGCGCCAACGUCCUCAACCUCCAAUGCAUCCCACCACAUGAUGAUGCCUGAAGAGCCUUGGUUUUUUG

variants of: B1; test: polymerase ribozyme fitness, log enrichment relative to wild type (log ratio); higher = more active; in vitro selection for triplet polymerase activity
Label scheme, based on polymerase ribozyme fitness (log ratio): band A (below -3), band B (-3 to below -0.9), band C (-0.9 or more)

Q: For G17C G25U C34U G69U U112G , which polymerase ribozyme fitness (log ratio) bin applies?
Result: band A

Q: Now consider G44C G71A C82U A83C .
Result: band B

Q: Now consider G61A A75U U96G A121G U129C G135U .
Result: band C

Q: Now consider G52U G61A C94U .
Result: band C

Q: Now consider C12G U14C U59G .
Result: band B

Q: Now consider C15U G45C G47A C53U U59A A90G C101U .
Result: band A

Q: Now consider C22U U96A .
Result: band A

Q: Now consider C12U A121C .
Result: band C

Q: Now consider A2G C11G U38G C82G .
Result: band A

Q: Now consider A50U G51A G60A .
Result: band A

Q: Now consider G44U G128U .
Result: band A

Q: Now consider A46U C49U C72A A121C .
Result: band C

Q: Now consider A41C C89U .
Result: band C

Q: Now consider G44A C53U .
Result: band B

Q: Now consider C13U G69U G93A U126C .
Result: band C

Q: Now consider G17U C88U G127C .
Result: band A

Q: Now consider C4U C13U G42A G69U G77A A90U C104U .
Result: band C

Q: Now consider A27C G60A .
Result: band A

Q: Now consider C13U G17U .
Result: band B

Q: Now consider C13G C114U .
Result: band B

Q: Now consider C72U G93A C102U G117A .
Result: band A
